Assayed System: HLA-C*15:02
Protocol: IEDB peptide-MHC binding, purified MHC/direct/fluorescence; filed as Kd, often an IC50 or EC50 that approximates it; bounds were set here for any values at or beyond the usual limits of such assays
Condition Context: source organism: Salmonella enterica subsp. enterica serovar Typhimurium str. LT2
Attribute Measured: pKd
Scale for pKd: -log10 of concentration given in mol/L; no unit attached.

Answer briefly: pKd recorded on HLA-C*15:02 for KTIPVAMTL
7.82

----------
Assayed System: HLA-B*35:01
Protocol: IEDB peptide-MHC binding, purified MHC/direct/fluorescence; filed as Kd, often an IC50 or EC50 that approximates it; bounds were set here for any values at or beyond the usual limits of such assays
Condition Context: source organism: Rickettsia typhi
Attribute Measured: pKd
Scale for pKd: -log10 of concentration given in mol/L; no unit attached.

Answer briefly: pKd recorded on HLA-B*35:01 for APILVVSGI
6.54

----------
Assayed System: HLA-A*23:01
Protocol: IEDB peptide-MHC binding, purified MHC/direct/fluorescence; filed as Kd, often an IC50 or EC50 that approximates it; bounds were set here for any values at or beyond the usual limits of such assays
Condition Context: source organism: Zaire ebolavirus
Attribute Measured: Kd

Answer briefly: Kd recorded on HLA-A*23:01 for LSDAIFDDL
≥ 20 µM

----------
Assayed System: HLA-A*11:01
Protocol: IEDB peptide-MHC binding, purified MHC/direct/fluorescence; filed as Kd, often an IC50 or EC50 that approximates it; bounds were set here for any values at or beyond the usual limits of such assays
Condition Context: source organism: Mycobacterium tuberculosis variant bovis
Attribute Measured: Kd

Indicate the recorded Kd value for this sequence: PMQQLTQPL
≥ 20 µM

----------
Assayed System: HLA-B*40:01
Protocol: IEDB peptide-MHC binding, purified MHC/direct/fluorescence; filed as Kd, often an IC50 or EC50 that approximates it; bounds were set here for any values at or beyond the usual limits of such assays
Condition Context: source organism: Influenza A virus (A/camel/Mongolia/1982(H1N1))
Attribute Measured: Kd

Indicate the recorded Kd value for this sequence: ELDEIGEDV
≥ 20 µM

----------
Assayed System: HLA-A*02:03
Protocol: IEDB peptide-MHC binding, purified MHC/competitive/radioactivity; filed as Kd, often an IC50 or EC50 that approximates it; bounds were set here for any values at or beyond the usual limits of such assays
Condition Context: source organism: Mammarenavirus brazilense
Attribute Measured: pKd
Scale for pKd: -log10 of concentration given in mol/L; no unit attached.

Answer briefly: pKd recorded on HLA-A*02:03 for LRYFIMAYV
6.40

----------
Assayed System: HLA-B*53:01
Protocol: IEDB peptide-MHC binding, purified MHC/competitive/radioactivity; filed as Kd, often an IC50 or EC50 that approximates it; bounds were set here for any values at or beyond the usual limits of such assays
Condition Context: source organism: Lymphocytic choriomeningitis virus (strain Armstrong)
Attribute Measured: pKd
Scale for pKd: -log10 of concentration given in mol/L; no unit attached.

Indicate the recorded pKd value for this sequence: MPSLTMACM
5.67

----------
Assayed System: HLA-A*32:07
Protocol: IEDB peptide-MHC binding, purified MHC/competitive/fluorescence; filed as Kd, often an IC50 or EC50 that approximates it; bounds were set here for any values at or beyond the usual limits of such assays
Condition Context: source organism: Zaire ebolavirus
Attribute Measured: Kd (nM)
Numbers only here, please. The scale is nM.

Indicate the recorded Kd value for this sequence: TTIGEWAFW
3.3
